B1: Lysine-specific demethylase 2B, residues 656 to 722; numbered along this chain, Q8NHM5 (parent)
chain: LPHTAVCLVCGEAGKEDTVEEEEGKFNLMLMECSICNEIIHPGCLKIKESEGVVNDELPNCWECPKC

variants of: B1; assay: abundance fitness (aPCA) (normalised: wild type 0, dead -1); higher = more abundant; growth selection in yeast, the domain comes from the species named; conditions: Homo sapiens
Classification field: enter 1 for abundance fitness values not below -0.04, 0 for values below it.

{"Alteration": "E16V", "Class label": 0}
{"Alteration": "E32P", "Class label": 0}
{"Alteration": "I39M", "Class label": 1}
{"Alteration": "L8P", "Class label": 0}
{"Alteration": "V53H", "Class label": 0}
{"Alteration": "E16G", "Class label": 0}
{"Alteration": "E32W", "Class label": 0}
{"Alteration": "C67T", "Class label": 0}
{"Alteration": "E16Q", "Class label": 1}
{"Alteration": "C61H", "Class label": 1}
{"Alteration": "L8D", "Class label": 0}
{"Alteration": "C33P", "Class label": 0}
{"Alteration": "I47F", "Class label": 0}
{"Alteration": "C64A", "Class label": 0}
{"Alteration": "I47Y", "Class label": 1}
{"Alteration": "A5Y", "Class label": 1}
{"Alteration": "C33W", "Class label": 0}
{"Alteration": "A13Q", "Class label": 1}
{"Alteration": "T4C", "Class label": 0}
{"Alteration": "H41V", "Class label": 0}
{"Alteration": "E12V", "Class label": 0}
{"Alteration": "F26G", "Class label": 0}
{"Alteration": "S50I", "Class label": 1}
{"Alteration": "I35L", "Class label": 1}
{"Alteration": "E49P", "Class label": 1}
{"Alteration": "E49S", "Class label": 0}
{"Alteration": "P59M", "Class label": 0}
{"Alteration": "S50C", "Class label": 1}
